Hey, just so you know, these numbers are from patent US12258328B2.

# IC50 per entry
# study-target: EGFR del19/T790M/C797S (Homo sapiens, UniProt P00533, C797S/DEL746-750/T790M)
# Sequence (P00533 with tags, fused parts or gaps DEL746-750/T790M/C797S): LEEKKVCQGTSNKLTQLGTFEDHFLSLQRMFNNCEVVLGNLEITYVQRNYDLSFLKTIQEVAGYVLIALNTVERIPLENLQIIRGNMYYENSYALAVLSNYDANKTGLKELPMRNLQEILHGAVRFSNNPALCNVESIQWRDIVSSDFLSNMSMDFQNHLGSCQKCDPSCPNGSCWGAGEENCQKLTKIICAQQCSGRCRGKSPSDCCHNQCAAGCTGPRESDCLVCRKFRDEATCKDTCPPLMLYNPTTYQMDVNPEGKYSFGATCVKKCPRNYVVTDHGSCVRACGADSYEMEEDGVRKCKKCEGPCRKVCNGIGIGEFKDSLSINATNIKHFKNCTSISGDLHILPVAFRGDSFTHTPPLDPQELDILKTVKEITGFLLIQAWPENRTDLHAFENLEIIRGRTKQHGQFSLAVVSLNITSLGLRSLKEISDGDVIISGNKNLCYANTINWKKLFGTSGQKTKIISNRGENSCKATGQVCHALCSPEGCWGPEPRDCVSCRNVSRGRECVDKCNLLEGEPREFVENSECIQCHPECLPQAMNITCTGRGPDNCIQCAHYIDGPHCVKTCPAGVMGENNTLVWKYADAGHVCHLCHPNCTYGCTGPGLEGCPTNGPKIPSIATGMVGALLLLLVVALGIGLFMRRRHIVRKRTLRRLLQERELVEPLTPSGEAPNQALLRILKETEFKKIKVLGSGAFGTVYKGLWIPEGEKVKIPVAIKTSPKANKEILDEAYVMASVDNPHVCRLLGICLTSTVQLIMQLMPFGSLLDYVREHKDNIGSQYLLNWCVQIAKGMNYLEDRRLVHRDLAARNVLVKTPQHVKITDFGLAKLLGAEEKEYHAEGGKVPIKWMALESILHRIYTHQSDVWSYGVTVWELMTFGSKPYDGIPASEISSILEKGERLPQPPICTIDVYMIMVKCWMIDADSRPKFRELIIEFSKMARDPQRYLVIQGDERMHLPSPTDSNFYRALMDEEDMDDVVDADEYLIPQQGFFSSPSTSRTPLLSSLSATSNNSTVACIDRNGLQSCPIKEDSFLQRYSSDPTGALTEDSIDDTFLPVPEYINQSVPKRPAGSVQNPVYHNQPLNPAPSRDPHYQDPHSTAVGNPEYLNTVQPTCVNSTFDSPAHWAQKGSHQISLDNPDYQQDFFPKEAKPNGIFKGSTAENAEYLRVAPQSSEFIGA
# assay: Biochemical EGFR kinase assay (Lance Ultra TR-FRET), triple mutant del19/T790M/C797S
# condition-info: Km ATP; read-out: IC50 del19/T790M/C797S (nM) Km ATP
value-kind: IC50 (nM)

* O=S(=O)(C1CC1)n1cc(-c2nccc(Nc3cc(N[C@H]4CC[C@](O)(CO)CC4)c(-c4ccccn4)cn3)n2)cn1 | 0.2
* O=S(=O)(C1CC1)n1cc(-c2nccc(Nc3cc(N[C@H]4CC[C@@H](CO)CC4)c(-c4ccc(N5CCC(F)(F)CC5)nn4)cn3)n2)cn1 | 1.9
* CN(C)Cc1cnc(-c2cnc(Nc3ccnc(-c4cnn(S(=O)(=O)C5CC5)c4)n3)cc2N[C@H]2CC[C@@](C)(O)CC2)cn1 | 0.1
* C[C@]1(O)CC[C@@H](Nc2cc(Nc3ccnc(-c4cnn(S(=O)(=O)C5CC5)c4)n3)ncc2-c2cnc(OC3COC3)cn2)CC1 | 0.2
* CN1CCN(c2ccc(-c3cnc(Nc4ccnc(-c5cnn(S(=O)(=O)C6CC6)c5)n4)cc3N[C@H]3CC[C@@](C)(O)CC3)nn2)CC1 | 0.2
* C[C@]1(O)CC[C@@H](Nc2cc(Nc3ccnc(-c4cnn(S(=O)(=O)C5CC5)c4)n3)ncc2-c2cnc(N3CCC(F)(F)CC3)cn2)CC1 | 8.7
* CN1CCN(Cc2ccnc(-c3cnc(Nc4ccnc(-c5cnn(S(=O)(=O)C6CC6)c5)n4)cc3N[C@H]3CC[C@@](C)(O)CC3)c2)CC1 | 0.7
* O=S(=O)(C1CC1)n1cc(-c2nccc(Nc3cc(N[C@H]4CC[C@@H](CCO)CC4)c(-c4cc(C(F)F)ccn4)cn3)n2)cn1 | 2.1
* C[C@]1(O)CC[C@@H](Nc2cc(Nc3ccnc(-c4cnn(S(=O)(=O)C5CC5)c4)n3)ncc2-c2cc(N3CCC(F)(F)CC3)ccn2)CC1 | 2.8
* C[C@]1(O)CC[C@@H](Nc2cc(Nc3ccnc(-c4cnn(S(=O)(=O)C5CC5)c4)n3)ncc2-c2cc(C(F)F)ccn2)CC1 | 2
* CC(C)(O)c1ccnc(-c2cnc(Nc3ccnc(-c4cnn(S(=O)(=O)C5CC5)c4)n3)cc2N[C@H]2CC[C@@H](CO)CC2)c1 | 0.3
* O=S(=O)(C1CC1)n1cc(-c2nccc(Nc3cc(N[C@H]4CC[C@@H](CO)CC4)c(-c4cc(N5CCC(F)(F)CC5)ccn4)cn3)n2)cn1 | 6.4

---

# study-target: EGFR L858R/T790M/C797S (Homo sapiens, UniProt P00533, C797S/L858R/T790M)
# Sequence (P00533 25-1210 T790M/C797S/L858R): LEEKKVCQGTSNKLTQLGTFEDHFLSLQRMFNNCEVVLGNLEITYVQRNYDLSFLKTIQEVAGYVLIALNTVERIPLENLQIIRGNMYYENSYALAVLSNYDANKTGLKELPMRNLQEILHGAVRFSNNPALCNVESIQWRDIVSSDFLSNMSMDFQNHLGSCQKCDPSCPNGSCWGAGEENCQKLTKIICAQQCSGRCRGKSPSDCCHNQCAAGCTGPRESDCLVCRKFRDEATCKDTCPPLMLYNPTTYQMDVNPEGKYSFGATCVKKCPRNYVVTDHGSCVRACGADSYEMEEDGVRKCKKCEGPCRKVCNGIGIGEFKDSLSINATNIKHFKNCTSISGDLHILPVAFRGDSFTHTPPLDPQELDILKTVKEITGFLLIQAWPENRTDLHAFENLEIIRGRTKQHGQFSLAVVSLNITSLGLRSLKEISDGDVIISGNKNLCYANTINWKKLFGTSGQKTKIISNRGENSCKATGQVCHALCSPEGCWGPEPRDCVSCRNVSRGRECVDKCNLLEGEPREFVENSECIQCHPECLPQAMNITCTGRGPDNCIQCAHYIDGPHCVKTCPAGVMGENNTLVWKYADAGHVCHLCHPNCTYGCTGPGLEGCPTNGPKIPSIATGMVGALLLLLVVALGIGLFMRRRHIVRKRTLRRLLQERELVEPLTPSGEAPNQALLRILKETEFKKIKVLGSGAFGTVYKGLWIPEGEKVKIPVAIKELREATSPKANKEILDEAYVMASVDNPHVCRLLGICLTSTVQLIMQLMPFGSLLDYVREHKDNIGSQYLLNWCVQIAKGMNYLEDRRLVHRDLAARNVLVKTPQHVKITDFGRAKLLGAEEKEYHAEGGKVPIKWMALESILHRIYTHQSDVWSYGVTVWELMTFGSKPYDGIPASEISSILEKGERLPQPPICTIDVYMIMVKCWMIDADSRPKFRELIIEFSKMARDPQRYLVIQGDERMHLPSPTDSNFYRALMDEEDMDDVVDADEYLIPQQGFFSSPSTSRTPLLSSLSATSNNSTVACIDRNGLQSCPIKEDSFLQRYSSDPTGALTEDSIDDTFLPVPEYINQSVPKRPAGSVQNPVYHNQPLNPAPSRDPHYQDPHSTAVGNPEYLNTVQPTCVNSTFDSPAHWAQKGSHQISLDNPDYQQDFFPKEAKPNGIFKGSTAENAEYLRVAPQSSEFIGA
# assay: Biochemical EGFR kinase assay (Lance Ultra TR-FRET), triple mutant L858R/T790M/C797S
# condition-info: IC50 L858R/T790M/C797S (nM) 100 μM ATP, 100 μM ATP
// reported IC50 for each item listed
value-kind: IC50

• COC1CN(c2ccc(-c3cnc(Nc4ccnc(-c5cnn(S(=O)(=O)C6CC6)c5)n4)cc3N[C@H]3CC[C@@H](C(C)(C)O)CC3)nc2)C1 [Example 92] = 2.3 nM
• CC(C)(O)c1ccnc(-c2cnc(Nc3ccnc(-c4cnn(S(=O)(=O)C5CC5)c4)n3)cc2N[C@H]2CC[C@@](C)(O)CC2)c1 [Example 108] = 0.2 nM
• CC(C)(O)c1ccc(-c2cnc(Nc3ccnc(-c4cnn(S(=O)(=O)C5CC5)c4)n3)cc2N[C@H]2CC[C@@](C)(O)CC2)nn1 [Example 86] = 0.2 nM
• CC(C)(O)[C@H]1CC[C@@H](Nc2cc(Nc3ccnc(-c4cnn(S(=O)(=O)C5CC5)c4)n3)ncc2-c2cc(N3CCC(F)(F)CC3)ccn2)CC1 [Example 103] = 3.9 nM
• Cc1ccnc(-c2cnc(Nc3ccnc(-c4cnn(S(=O)(=O)C5CC5)c4)n3)cc2N[C@H]2CC[C@@](C)(O)CC2)c1 [Example 12] = 0.6 nM
• CN(C)C[C@H]1CC[C@@H](Nc2cc(Nc3ccnc(-c4cnn(S(=O)(=O)C5CC5)c4)n3)ncc2-c2cc(C(F)F)ccn2)CC1 [Example 79] = 0.5 nM
• O=S(=O)(C1CC1)n1cc(-c2nccc(Nc3cc(NC4CCC(CO)CC4)c(-c4ccc(N5CCOCC5)cn4)cn3)n2)cn1 (stereo not drawn) [Example 57] = 1 nM
• CC(C)(O)c1cnc(-c2cnc(Nc3ccnc(-c4cnn(S(=O)(=O)C5CC5)c4)n3)cc2N[C@H]2CC[C@@](C)(O)CC2)cn1 [Example 118] = 0.2 nM
• CN(C)c1cnc(-c2cnc(Nc3ccnc(-c4cnn(S(=O)(=O)C5CC5)c4)n3)cc2N[C@H]2CC[C@@](C)(O)CC2)nc1 [Example 39] = 0.7 nM
• COC1CN(c2ccc(-c3cnc(Nc4ccnc(-c5cnn(S(=O)(=O)C6CC6)c5)n4)cc3N[C@H]3CC[C@@H](CN(C)C)CC3)nc2)C1 [Example 93] = 0.3 nM
• CN(C)C[C@H]1CC[C@@H](Nc2cc(Nc3ccnc(-c4cnn(S(=O)(=O)C5CC5)c4)n3)ncc2-c2cc(N3CCC(F)(F)CC3)ccn2)CC1 [Example 101] = 0.7 nM
• CC(C)(O)[C@H]1CC[C@@H](Nc2cc(Nc3ccnc(-c4cnn(S(=O)(=O)C5CC5)c4)n3)ncc2-c2cnc(N3CCC(F)(F)CC3)cn2)CC1 [Example 72] = 12.2 nM

---

# study-target: EGFR wildtype (Homo sapiens, UniProt P00533)
# Sequence (P00533 25-1210): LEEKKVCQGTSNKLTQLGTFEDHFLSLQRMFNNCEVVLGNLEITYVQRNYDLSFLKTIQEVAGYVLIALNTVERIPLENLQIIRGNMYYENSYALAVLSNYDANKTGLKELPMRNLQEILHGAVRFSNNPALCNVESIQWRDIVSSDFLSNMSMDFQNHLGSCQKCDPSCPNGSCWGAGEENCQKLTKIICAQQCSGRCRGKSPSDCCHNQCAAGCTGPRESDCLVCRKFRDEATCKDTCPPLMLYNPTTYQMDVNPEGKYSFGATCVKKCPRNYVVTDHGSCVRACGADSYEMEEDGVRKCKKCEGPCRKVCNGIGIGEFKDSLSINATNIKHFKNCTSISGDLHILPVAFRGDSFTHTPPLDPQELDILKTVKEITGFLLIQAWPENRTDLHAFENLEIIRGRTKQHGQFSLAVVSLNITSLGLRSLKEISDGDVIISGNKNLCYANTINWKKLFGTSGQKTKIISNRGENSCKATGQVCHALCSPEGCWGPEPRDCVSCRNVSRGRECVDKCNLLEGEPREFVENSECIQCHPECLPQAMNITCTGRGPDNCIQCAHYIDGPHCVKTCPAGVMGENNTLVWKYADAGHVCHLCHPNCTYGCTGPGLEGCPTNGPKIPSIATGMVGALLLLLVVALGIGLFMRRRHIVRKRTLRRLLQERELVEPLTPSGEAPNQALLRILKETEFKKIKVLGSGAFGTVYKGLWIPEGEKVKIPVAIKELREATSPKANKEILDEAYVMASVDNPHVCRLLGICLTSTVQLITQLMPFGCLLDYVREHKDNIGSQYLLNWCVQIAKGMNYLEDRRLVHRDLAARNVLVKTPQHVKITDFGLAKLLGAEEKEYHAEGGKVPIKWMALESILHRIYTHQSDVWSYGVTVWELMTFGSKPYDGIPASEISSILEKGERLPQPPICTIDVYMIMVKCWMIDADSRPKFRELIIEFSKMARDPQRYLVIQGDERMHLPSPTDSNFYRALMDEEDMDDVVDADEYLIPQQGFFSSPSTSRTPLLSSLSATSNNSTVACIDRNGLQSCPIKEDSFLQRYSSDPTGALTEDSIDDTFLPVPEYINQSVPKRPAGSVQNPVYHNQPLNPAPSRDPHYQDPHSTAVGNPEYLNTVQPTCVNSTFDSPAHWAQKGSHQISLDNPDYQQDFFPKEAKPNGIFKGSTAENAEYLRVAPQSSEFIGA
# assay: Biochemical EGFR kinase assay (Lance Ultra TR-FRET), wildtype
# condition-info: IC50 WT (nM) 100 μM ATP, 100 μM ATP
value-kind: IC50

* CN(C)Cc1ccc(-c2cnc(Nc3ccnc(-c4cnn(S(=O)(=O)C5CC5)c4)n3)cc2N[C@H]2CC[C@@](C)(O)CC2)nc1 [Example 31] | 52.6 nM
* CN(C)Cc1ccc(-c2cnc(Nc3ccnc(-c4cnn(S(=O)(=O)C5CC5)c4)n3)cc2N[C@H]2CC[C@@H](C(C)(C)O)CC2)nc1 [Example 26] | 107 nM
* Cc1ccc(-c2cnc(Nc3ccnc(-c4cnn(S(=O)(=O)C5CC5)c4)n3)cc2N[C@H]2CC[C@@](C)(O)CC2)nc1 [Example 8] | 8890 nM
* Cc1cc(-c2cnc(Nc3ccnc(-c4cnn(S(=O)(=O)C5CC5)c4)n3)cc2N[C@H]2CC[C@@](C)(O)CC2)nnc1C [Example 50] | > 10000 nM
* CN(C)CCOc1cnc(-c2cnc(Nc3ccnc(-c4cnn(S(=O)(=O)C5CC5)c4)n3)cc2N[C@H]2CC[C@@H](C(C)(C)O)CC2)cn1 [Example 117] | 6500 nM
* O=S(=O)(C1CC1)n1cc(-c2nccc(Nc3cc(N[C@H]4CC[C@@H](NCCF)CC4)c(-c4ccc(CO)cn4)cn3)n2)cn1 [Example 21] | 5570 nM

---

# study-target: EGFR wildtype (Homo sapiens)
# assay: Biochemical EGFR kinase assay (Lance Ultra TR-FRET), wildtype
# condition-info: IC50 WT, 100 μM ATP
# maps each entry to its IC50
value-kind: IC50

- CC(C)(F)c1ccc(-c2cnc(Nc3ccnc(-c4cnn(S(=O)(=O)C5CC5)c4)n3)cc2N[C@H]2CC[C@@](C)(O)CC2)nc1 [Example 291]: > 10 µM
- CN(C)S(=O)(=O)c1ccc(-c2cnc(Nc3ccnc(-c4cnn(S(=O)(=O)C5CC5)c4)n3)cc2N[C@H]2CC[C@@H](CO)CC2)nc1 [Example 166]: > 10 µM
- O=S(=O)(C1CC1)n1cc(-c2nccc(Nc3cc(NCC4(CO)COC4)c(-c4cccc(F)n4)cn3)n2)cn1 [Example 161]: > 10 µM

---

# study-target: EGFR del19/T790M/C797S (Homo sapiens, UniProt P00533, C797S/DEL746-750/T790M)
# assay: Biochemical EGFR kinase assay (Lance Ultra TR-FRET), triple mutant del19/T790M/C797S
# condition-info: Km ATP; read-out: IC50 del19/T790M/C797S (nM) Km ATP
# Description: Biochemical EGFR kinase assays were conducted using Lance Ultra time-resolved fluorescence resonance energy transfer (TR-FRET) technology from Perkin-Elmer. […] Each kinase reactions were incubated at room temperature for 1 hour and then stopped by the addition of 4 μL of stop solution (10 mM EDTA). […] After 60 minutes incubation at room temperature the LANCE signal was measured on an EnVision Multilabel Reader (Perkin-Elmer). […]
Sorting guide: entries reporting IC50 beneath 2 nM go in the Fulfilled pile, the rest go in the Not fulfilled pile.

- CC(C)(O)c1cc(-c2cnc(Nc3ccnc(-c4cnn(S(=O)(=O)C5CC5)c4)n3)cc2N[C@H]2CC[C@@](C)(O)CC2)ncc1F: Fulfilled
- CC(C)Nc1cc(Nc2ccnc(-c3cnn(S(=O)(=O)C4CC4)c3)n2)ncc1-c1cnc(OCCN(C)C)cn1: Fulfilled
- O=S(=O)(C1CC1)n1cc(-c2nccc(Nc3cc(N[C@H]4CC[C@@H](CO)CC4)c(-c4cc(CN5CCC(F)(F)CC5)ccn4)cn3)n2)cn1: Not fulfilled
- CC(C)(O)[C@H]1CC[C@@H](Nc2cc(Nc3ccnc(-c4cnn(S(=O)(=O)C5CC5)c4)n3)ncc2-c2ccc(CN3CCOCC3)cn2)CC1: Fulfilled
- COc1c(F)ccnc1-c1cnc(Nc2ccnc(-c3cnn(CC(F)F)c3)n2)cc1N[C@H]1CC[C@@](C)(O)CC1: Not fulfilled
- CC(C)Nc1cc(Nc2ccnc(-c3cnn(S(=O)(=O)C4CC4)c3)n2)ncc1-c1ccc(N2CCOCC2)cn1: Fulfilled
- Cc1ccc(-c2cnc(Nc3ccnc(-c4cnn(S(=O)(=O)C5CC5)c4)n3)cc2N[C@H]2CC[C@@](C)(O)CC2)nn1: Fulfilled
- C[C@]1(O)CC[C@@H](Nc2cc(Nc3ccnc(-c4cnn(S(=O)(=O)C5CC5)c4)n3)ncc2-c2cnc(C(F)(F)F)cn2)CC1: Fulfilled
- CN1CCN(c2ccc(-c3cnc(Nc4ccnc(-c5cnn(S(=O)(=O)C6CC6)c5)n4)cc3N[C@H]3CC[C@@H](CO)CC3)nc2)CC1: Fulfilled
- C[C@]1(O)CC[C@@H](Nc2cc(Nc3ccnc(-c4cnn(S(=O)(=O)C5CC5)c4)n3)ncc2-c2cnc(OC3CCOCC3)cn2)CC1: Fulfilled
- O=S(=O)(C1CC1)n1cc(-c2nccc(Nc3cc(N[C@H]4CC[C@H](CCO)CC4)c(-c4ccc(C(F)F)cn4)cn3)n2)cn1: Not fulfilled
- CN(C)Cc1ccc(-c2cnc(Nc3ccnc(-c4cnn(S(=O)(=O)C5CC5)c4)n3)cc2N[C@H]2CC[C@@H](C(C)(C)O)CC2)nc1: Fulfilled
- CN(C)C[C@H]1CC[C@@H](Nc2cc(Nc3ccnc(-c4cnn(S(=O)(=O)C5CC5)c4)n3)ncc2-c2cc(N3CCC(F)(F)CC3)ccn2)CC1: Fulfilled
- O=S(=O)(C1CC1)n1cc(-c2nccc(Nc3cc(N[C@H]4CC[C@@H](CCO)CC4)c(-c4ccc(C(F)F)cn4)cn3)n2)cn1: Not fulfilled
- C[C@]1(O)CC[C@@H](Nc2cc(Nc3ccnc(-c4cnn(S(=O)(=O)C5CC5)c4)n3)ncc2-c2ccc(OC(F)F)cn2)CC1: Fulfilled
- C[C@]1(O)CC[C@@H](Nc2cc(Nc3ccnc(-c4cnn(S(=O)(=O)C5CC5)c4)n3)ncc2-c2ncccc2OCC(F)(F)F)CC1: Not fulfilled
- COc1ccc(-c2cnc(Nc3ccnc(-c4cnn(S(=O)(=O)C5CC5)c4)n3)cc2N[C@H]2CC[C@@](C)(O)CC2)nn1: Fulfilled
- CC(C)(O)c1ccc(-c2cnc(Nc3ccnc(-c4cnn(S(=O)(=O)C5CC5)c4)n3)cc2N[C@H]2CC[C@@](C)(O)CC2)nn1: Fulfilled
- Cc1cc(-c2cnc(Nc3ccnc(-c4cnn(S(=O)(=O)C5CC5)c4)n3)cc2N[C@H]2CC[C@@](C)(O)CC2)nnc1C: Fulfilled
